Where do the numbers come from? From paper PMC3044235.

Assay type: in vivo, human
RUN_PARAMETERS: human, urine, po
ASSAY_ENDPOINT: half-life (h)
One number for each entry, in h.

Prompt: Entry C[C@@H]1O[C@@H](OC[C@H]2O[C@@H](Oc3c(-c4ccc(O)c(O)c4)oc4cc(O)cc(O)c4c3=O)[C@H](O)[C@@H](O)[C@@H]2O)[C@H](O)[C@H](O)[C@H]1O [RUT, rutin] needs its half-life filled in; supply it.
Completion: 3.98

# input for lookup
Prompt: Entry O=c1c(-c2ccc(O)cc2)coc2cc(O)ccc12 [DA, daidzein] needs its half-life filled in; supply it.
Completion: 4.43

* * *

Type: in vivo, human
RUN_PARAMETERS: human, urine, po
ASSAY_ENDPOINT: AUC(0-t) (µg·h/mL)
One number for each entry, in µg·h/mL.

Prompt: Entry O=c1c(-c2ccc(O)cc2)coc2cc(O)ccc12 needs its AUC(0-t) filled in; supply it.
Completion: 7710

# input for lookup
Prompt: Entry C[C@@H]1O[C@@H](OC[C@H]2O[C@@H](Oc3c(-c4ccc(O)c(O)c4)oc4cc(O)cc(O)c4c3=O)[C@H](O)[C@@H](O)[C@@H]2O)[C@H](O)[C@H](O)[C@H]1O needs its AUC(0-t) filled in; supply it.
Completion: 12800

* * *

Format: in vivo, human
RUN_PARAMETERS: human, urine, po
For each record, write down the corresponding Tmax.
Give bare numbers, in h.

Prompt: Entry C[C@@H]1O[C@@H](OC[C@H]2O[C@@H](Oc3c(-c4ccc(O)c(O)c4)oc4cc(O)cc(O)c4c3=O)[C@H](O)[C@@H](O)[C@@H]2O)[C@H](O)[C@H](O)[C@H]1O [RUT, rutin] needs its Tmax filled in; supply it.
Completion: 8

***
Prompt: Entry O=c1c(-c2ccc(O)cc2)coc2cc(O)ccc12 [DA, daidzein] needs its Tmax filled in; supply it.
Completion: 7
